tested on: SNB-75 CNS; assay: NCI-60 one-dose screen, 48 h (100 = growth as untreated, 0 = no growth, -100 = all killed); details: 10 µM unless noted
This is part of a sample that, as a whole, favours compounds with a hit. Of some 83,000 tested, about 20% had one in any assay.
Exercise: for every item that follows, state its recorded growth.
One number for each entry, in %.

{"Molecule": "CCOC(=O)c1c(NC(=O)C2CCCCC2C(=O)O)sc2c1CCCC2 (stereo not drawn)", "Unit descriptor": "%", "growth": 97.3}
{"Molecule": "O=[N+]([O-])c1cnc(Sc2ccncn2)c([N+](=O)[O-])c1", "Unit descriptor": "%", "growth": 95.2}
{"Molecule": "COc1ccc(-c2cnnn2-c2cc(OC)c3c(c2)OCO3)cc1", "Unit descriptor": "%", "growth": 23.1}
{"Molecule": "CCOC(=O)C1=NN(c2ccc(Cl)cc2)C2C3N(c4ccc(Cl)cc4)N=C(C(=O)OCC)N3c3ccccc3N12 (stereo not drawn)", "Unit descriptor": "%", "growth": 91.1}

Can you give me growth for all of these, one by one?
1. C/C(=N/N=C(N)N)c1ccc(N)cc1
2. C=C(C)[C@H]1CC/C(C)=C/CC[C@]2(C)O[C@H]2CC/C(C=O)=C\C1O (stereo partly drawn)
3. CC1(C)OC(=O)C(=Cc2ccccc2Br)C(=O)O1
4. Cc1cc(CC(=O)O)n(C)c1C(=O)c1ccc(Cl)cc1
5. CCCCC1Nc2nc(SC)n(C)c(=O)c2CN(Cc2ccccc2)C1=O (stereo not drawn)
6. O=C(/C(=C/c1ccc([N+](=O)[O-])cc1)c1ccccc1)c1ccccc1
7. CCOC(=O)C1=C(C)N2C(=NC3=C(CCC/C3=C\c3ccc(Cl)cc3)C2c2ccc(Cl)cc2)S1 (stereo not drawn)
8. CC(C)[C@]12O[C@H]1[C@@H]1O[C@]13[C@]1(O[C@H]1C[C@H]1C4=C(CC[C@@]13C)C(=O)OC4)[C@@H]2OC(=O)CN(C)C

Ans.
[102, 106, 81.8, 121, 86, 70.6, 64.2, -65.4]

Can you give me growth for all of these, one by one?
1. COc1ccc(-c2nc3sccn3c2-c2ccnc(S(C)(=O)=O)n2)cc1
2. O=C(CCc1nnc2sc(-c3ccc(Cl)cc3Cl)nn12)c1nc2ccccc2[nH]1
3. CCn1c2c(c3ccccc31)SC1c3cccn3CCN1C2=S (stereo not drawn)

Ans.
1: 61.1; 2: -45.8; 3: 79.6

Attribution: PubChem BioAssay (NCI)
